What fold change of affinity was measured for each of the following?
- assayed-system: T1, Human CD3eg linker (human)
- T1 construct: Single chain: epsilon and gamma subunits of human CD3 joined by a 29-mer linker, Flag-tag at the C-terminus; also called recombinant human CD3
- T1 chain: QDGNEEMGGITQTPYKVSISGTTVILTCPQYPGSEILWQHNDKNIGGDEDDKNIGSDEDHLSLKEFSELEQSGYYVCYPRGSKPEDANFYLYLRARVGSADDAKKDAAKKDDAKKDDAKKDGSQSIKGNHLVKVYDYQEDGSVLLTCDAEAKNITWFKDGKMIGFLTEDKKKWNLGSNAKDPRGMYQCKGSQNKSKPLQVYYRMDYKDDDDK
- method: Biacore SPR, vs template H183/L072
Please state the number and follow it with the unit.

A selection of reference data follows.
H183/L072 VH P100eI (antibody, name in Kabat numbering, V domains shown) VH: QVQLVESGGGLVQPGRSLRLSCAASGFTFSNAWMHWVRQAPGKGLEWVAQIKDKGNAYAAYYAPSVKGRFTISRDDSKNSIYLQMNSLKTEDTAVYYCHYVHYASASTVLIAFGVDAWGQGTTVTVSS VL: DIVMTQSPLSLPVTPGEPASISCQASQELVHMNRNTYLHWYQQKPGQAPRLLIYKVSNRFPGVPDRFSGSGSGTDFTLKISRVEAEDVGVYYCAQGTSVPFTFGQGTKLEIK    1.4 fold
H183/L072 VH A57L (antibody, name in Kabat numbering, V domains shown) VH: QVQLVESGGGLVQPGRSLRLSCAASGFTFSNAWMHWVRQAPGKGLEWVAQIKDKGNAYALYYAPSVKGRFTISRDDSKNSIYLQMNSLKTEDTAVYYCHYVHYASASTVLPAFGVDAWGQGTTVTVSS VL: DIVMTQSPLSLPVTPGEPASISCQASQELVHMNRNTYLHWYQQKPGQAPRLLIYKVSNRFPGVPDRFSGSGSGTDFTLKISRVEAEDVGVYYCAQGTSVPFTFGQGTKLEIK    0.5 fold

Could you now look at the following binder, please?
Incoming: Entry H183/L072 VH Y58S (antibody, name in Kabat numbering, V domains shown) VH: QVQLVESGGGLVQPGRSLRLSCAASGFTFSNAWMHWVRQAPGKGLEWVAQIKDKGNAYAASYAPSVKGRFTISRDDSKNSIYLQMNSLKTEDTAVYYCHYVHYASASTVLPAFGVDAWGQGTTVTVSS VL: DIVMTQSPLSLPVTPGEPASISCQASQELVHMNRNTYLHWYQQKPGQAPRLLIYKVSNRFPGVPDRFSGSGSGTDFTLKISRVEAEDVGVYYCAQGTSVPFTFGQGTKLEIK : reported fold change of affinity = ?
Outgoing: 0.4 fold
